# Read-out: Interferon-gamma inducible Protein 10 (IP10), CXCL10 (gene 3627)
# procedure_text: BSK_hDFCGF_IP10: BioMAP Diversity Plus: hDFCGF Assay for Interferon-gamma inducible Protein 10 (IP10) Biomarker Activity (AID 2283053)
# protocol_conditions: primary human foreskin fibroblasts; actives raise or lower the signal
Activity calls are given as the source filed them. The calls were made as follows: active = hit-call score of the fitted dose curve at least 0.9, where 1 is the maximum; inactive = score below 0.9.
Write down one outcome, taken from Yes = active, No = inactive

Below, 3 compounds whose answers are already recorded.
Lab log entry: `CCSC(=O)N(CC)C1CCCCC1` — outcome as called in the assay?
No

Would you mind telling me which call this test gave `CCOCCOC(C)=O` ?
No

Short answer needed: outcome of this test for `Cc1cc(O)ccc1Cl` ?
No

Further cases:
Hi, do you know how `CCC(C)(CC)c1cc(NC(=O)c2c(OC)cccc2OC)on1` came out in this test?
No

GET /call?item= `ClC1=C(Cl)[C@]2(Cl)[C@@H]3[C@@H]4C[C@@H]([C@H]5O[C@@H]45)[C@@H]3[C@@]1(Cl)C2(Cl)Cl` returns the recorded outcome of this test.
No

What is the recorded call for this compound in the test? `COc1ccc(O)c(C(C)(C)C)c1`
No

For C1CC2OC2CC1C1CO1 (stereo not drawn) , which call appears in the assay record?
No

Please state the recorded outcome for this compound: `CCNc1nc(NC(C)C)nc(SC)n1`
Yes

----------
# measured_on: Glucocorticoid receptor (Homo sapiens)
# procedure_text: ATG_GR_TRANS: Attagene TRANS-FACTORIAL HepG2 Assay for human Glucocorticoid Receptor (GR) (AID 2282978);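 also: activators score as hits since higher reporter transcript over DMSO is fitted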
# protocol_conditions: HepG2 Attagene TRANS GR reporter, mRNA transcription
Records with an inconclusive call do not appear. Activity calls are given as the source filed them. How the source made its calls: active means hit-call score of the fitted dose curve at least 0.9, where 1 is the maximum; inconclusive means response in the unintended direction; inactive means score below 0.9.
attribute_measured: outcome

Some entries whose results are on file:
Tested on Glucocorticoid receptor (Homo sapiens): `O=C(NC(=O)c1cc(F)c(F)cc1Cl)Nc1cc(F)ccc1N1CCC(C(=O)O)CC1` . Observed outcome: inactive

Let me check: `Cc1cc(O)ccc1Cl` , system Glucocorticoid receptor (Homo sapiens), measured outcome is inactive

Assay Glucocorticoid receptor (Homo sapiens), sample `ClC1=C(Cl)[C@]2(Cl)[C@@H]3[C@@H](Cl)[C@H]4O[C@H]4[C@@H]3C1(Cl)C2(Cl)Cl` , outcome read: inactive

Glucocorticoid receptor (Homo sapiens) data for `ClC1=C(Cl)[C@]2(Cl)[C@@H]3[C@@H]4C[C@@H]([C@H]5O[C@@H]45)[C@@H]3[C@@]1(Cl)C2(Cl)Cl` ; its outcome: inactive

Considering `CC#Cc1cc(C)nc(Nc2ccccc2)n1` , its outcome with Glucocorticoid receptor (Homo sapiens) was recorded as inactive

Lab entry: Glucocorticoid receptor (Homo sapiens) assay, molecule `C[C@]12CCC(=O)C=C1CC[C@@H]1[C@@H]2CC[C@@]2(C)[C@H]1CC[C@]2(C)O` , outcome = inactive

Lab note: molecule `O=C(O)C(F)(F)C(F)(F)C(F)(F)C(F)(F)C(F)(F)C(F)(F)C(F)(F)C(F)(F)C(F)(F)F` tested on Glucocorticoid receptor (Homo sapiens); recorded outcome was inactive

Recorded outcome for `Sc1ccccc1` on Glucocorticoid receptor (Homo sapiens) was inactive

The observed outcome for `O=C(N[C@H]1CN2CCC1CC2)c1cc2ccoc2cn1` when tested with Glucocorticoid receptor (Homo sapiens) stands at inactive

Item `Oc1ccc(C(c2ccc(O)cc2)(C(F)(F)F)C(F)(F)F)cc1` ; assay system Glucocorticoid receptor (Homo sapiens); outcome reported as inactive

Each molecule below has a reported value. Please supply its outcome.
1. Nc1ccc(-c2ccc(N)cc2)cc1
2. CCCCCCOC(=O)c1ccccc1C(=O)OCCCCCC
3. CCC(=O)O[C@H]1CC[C@H]2[C@@H]3CCC4=CC(=O)CC[C@]4(C)[C@H]3CC[C@]12C
4. c1ccc(-c2ccccc2)cc1
5. CC(C)(c1ccccc1)c1ccc(O)cc1
6. Cc1cccc(C)c1N

inactive
inactive
inactive
inactive
inactive
inactive
